- system under test: F508del-CFTR (Homo sapiens, UniProt P13569, DEL508-508)
- Sequence (P13569 with tags, fused parts or gaps DEL508-508): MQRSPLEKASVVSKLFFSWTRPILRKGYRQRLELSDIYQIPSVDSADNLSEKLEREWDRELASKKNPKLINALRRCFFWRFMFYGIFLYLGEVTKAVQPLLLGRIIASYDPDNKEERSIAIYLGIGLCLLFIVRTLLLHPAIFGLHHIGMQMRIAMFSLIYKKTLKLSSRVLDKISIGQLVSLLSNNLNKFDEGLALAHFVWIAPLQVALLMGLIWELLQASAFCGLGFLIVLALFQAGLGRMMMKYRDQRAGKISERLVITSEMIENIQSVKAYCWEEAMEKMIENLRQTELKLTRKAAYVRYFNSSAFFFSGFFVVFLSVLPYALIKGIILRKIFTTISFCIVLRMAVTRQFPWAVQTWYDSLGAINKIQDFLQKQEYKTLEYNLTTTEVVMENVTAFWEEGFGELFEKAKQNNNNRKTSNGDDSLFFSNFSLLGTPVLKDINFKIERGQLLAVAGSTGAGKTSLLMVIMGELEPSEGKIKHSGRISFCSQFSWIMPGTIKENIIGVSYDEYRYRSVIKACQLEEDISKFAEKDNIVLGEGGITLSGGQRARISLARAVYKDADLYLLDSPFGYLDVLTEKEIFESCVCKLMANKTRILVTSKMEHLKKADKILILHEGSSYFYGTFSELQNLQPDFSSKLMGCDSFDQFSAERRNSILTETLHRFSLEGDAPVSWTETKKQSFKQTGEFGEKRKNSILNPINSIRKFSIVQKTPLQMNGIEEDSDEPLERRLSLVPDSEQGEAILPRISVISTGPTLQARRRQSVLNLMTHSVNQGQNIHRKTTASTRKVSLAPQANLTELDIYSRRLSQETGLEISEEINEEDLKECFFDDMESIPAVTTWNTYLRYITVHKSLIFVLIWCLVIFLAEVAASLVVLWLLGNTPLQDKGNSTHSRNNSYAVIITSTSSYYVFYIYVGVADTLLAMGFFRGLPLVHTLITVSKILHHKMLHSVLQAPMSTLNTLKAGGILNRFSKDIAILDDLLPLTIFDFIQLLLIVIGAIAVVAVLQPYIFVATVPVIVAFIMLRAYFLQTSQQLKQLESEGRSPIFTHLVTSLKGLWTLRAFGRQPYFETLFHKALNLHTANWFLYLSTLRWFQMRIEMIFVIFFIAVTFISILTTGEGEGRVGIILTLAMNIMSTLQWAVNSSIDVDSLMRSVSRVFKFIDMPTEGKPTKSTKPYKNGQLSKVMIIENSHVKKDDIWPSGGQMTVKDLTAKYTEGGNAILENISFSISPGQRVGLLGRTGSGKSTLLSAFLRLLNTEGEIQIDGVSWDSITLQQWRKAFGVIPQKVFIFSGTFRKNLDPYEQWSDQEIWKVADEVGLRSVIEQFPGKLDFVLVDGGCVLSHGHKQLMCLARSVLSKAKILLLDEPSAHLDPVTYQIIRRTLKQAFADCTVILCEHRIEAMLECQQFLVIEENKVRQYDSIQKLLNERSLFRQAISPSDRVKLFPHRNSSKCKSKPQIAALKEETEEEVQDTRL
- assay info: fluorescence membrane potential assay in HEK-293 cells expressing F508del-CFTR, […] °C, forskolin activated
quantity kind: pEC50
Just the number, please; pEC50 means minus log10 of the concentration in mol/L.

Lookup result for CC(C)(C)c1cc(C(C)(C)C)c(NC(=O)c2c[nH]c3ccccc3c2=O)cc1O [VX-770] ; measured pEC50: 6.42

Data credit: paper PMC11234710
